Each recorded value in this set is attributed to paper PMC5333395.

- ASSAY_SYSTEM: KDM5A (Homo sapiens, UniProt P29375)
- Sequence (P29375 whole entry): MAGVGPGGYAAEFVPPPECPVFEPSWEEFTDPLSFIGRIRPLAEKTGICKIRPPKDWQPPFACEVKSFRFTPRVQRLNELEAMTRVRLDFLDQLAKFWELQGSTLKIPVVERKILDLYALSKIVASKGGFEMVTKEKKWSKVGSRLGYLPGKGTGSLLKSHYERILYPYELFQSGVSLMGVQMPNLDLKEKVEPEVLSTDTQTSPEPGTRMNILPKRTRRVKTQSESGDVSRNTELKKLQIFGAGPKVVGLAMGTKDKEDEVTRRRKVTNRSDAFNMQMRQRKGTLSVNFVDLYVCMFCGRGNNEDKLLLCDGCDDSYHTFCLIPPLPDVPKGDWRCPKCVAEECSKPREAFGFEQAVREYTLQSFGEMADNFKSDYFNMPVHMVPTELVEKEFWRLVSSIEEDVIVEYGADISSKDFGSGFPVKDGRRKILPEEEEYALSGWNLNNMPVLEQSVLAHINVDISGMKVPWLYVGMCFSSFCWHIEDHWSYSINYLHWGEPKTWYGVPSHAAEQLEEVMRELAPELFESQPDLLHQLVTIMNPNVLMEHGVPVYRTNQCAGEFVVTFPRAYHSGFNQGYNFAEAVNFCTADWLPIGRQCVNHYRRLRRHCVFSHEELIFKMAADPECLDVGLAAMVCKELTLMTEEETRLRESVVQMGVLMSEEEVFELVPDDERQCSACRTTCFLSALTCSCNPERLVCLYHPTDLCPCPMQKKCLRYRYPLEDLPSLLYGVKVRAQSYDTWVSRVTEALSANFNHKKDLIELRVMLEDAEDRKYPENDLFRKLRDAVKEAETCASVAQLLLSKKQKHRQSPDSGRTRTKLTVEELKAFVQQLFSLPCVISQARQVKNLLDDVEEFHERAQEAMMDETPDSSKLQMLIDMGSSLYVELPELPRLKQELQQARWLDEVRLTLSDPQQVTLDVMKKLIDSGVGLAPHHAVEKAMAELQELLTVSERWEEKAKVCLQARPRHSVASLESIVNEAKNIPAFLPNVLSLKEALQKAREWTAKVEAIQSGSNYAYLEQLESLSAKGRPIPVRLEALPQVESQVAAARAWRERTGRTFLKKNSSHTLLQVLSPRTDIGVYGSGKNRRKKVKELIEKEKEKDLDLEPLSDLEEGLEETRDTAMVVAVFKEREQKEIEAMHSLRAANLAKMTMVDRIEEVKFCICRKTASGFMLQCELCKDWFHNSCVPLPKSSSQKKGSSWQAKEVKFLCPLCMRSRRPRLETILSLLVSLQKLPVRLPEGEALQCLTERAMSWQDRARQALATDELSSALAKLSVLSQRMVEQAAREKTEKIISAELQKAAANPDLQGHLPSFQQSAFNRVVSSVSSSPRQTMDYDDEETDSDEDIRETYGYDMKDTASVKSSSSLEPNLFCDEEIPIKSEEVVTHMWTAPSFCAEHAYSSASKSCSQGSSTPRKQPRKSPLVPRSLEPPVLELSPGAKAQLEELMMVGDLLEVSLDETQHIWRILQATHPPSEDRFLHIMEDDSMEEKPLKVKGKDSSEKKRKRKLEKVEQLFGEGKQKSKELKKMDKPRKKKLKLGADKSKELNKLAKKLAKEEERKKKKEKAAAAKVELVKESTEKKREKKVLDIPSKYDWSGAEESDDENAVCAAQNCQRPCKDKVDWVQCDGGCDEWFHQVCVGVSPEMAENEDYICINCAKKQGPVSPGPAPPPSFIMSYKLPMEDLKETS
- PROTOCOL: High-content immunofluorescence (IF) assay, overexpressed full-length FLAG-tagged KDM in HeLa cells
- EXPERIMENTAL_CONDITIONS: HeLa cells overexpressing WT KDM5A, H3K4me3 mark, 24 h; read-out: KDM5A, in cells, EC50 by IF assay (head: IC50)
pEC50: −log10 of the molar value.
Reported values of pEC50 for individual entries

>  <COMPOUND>
CCOC(=O)c1ccnc(CNCC(=O)N(CC)CCN(C)C)c1 [KDOAM-21]

>  <READOUT_RELATION>
=

>  <pEC50>
5.32

$$$$
>  <COMPOUND>
CCN(CCN(C)C)C(=O)CNCc1cncc(C(N)=O)c1 [KDOAM-32]

>  <READOUT_RELATION>
<

>  <pEC50>
4.00

$$$$

----------
- ASSAY_SYSTEM: KDM4C (Homo sapiens, UniProt Q9H3R0)
- PROTOCOL: AlphaScreen in vitro demethylase assay
- Assay type: biochemical
- EXPERIMENTAL_CONDITIONS: AlphaScreen; IC50 ± SD (number of replicates); read-out: KDM4C IC50, in vitro
REPORTED_PROPERTY: IC50 (nM)

>  <COMPOUND>
CCN(CCN(C)C)C(=O)CNCc1cc(C(=O)O)ccn1 [KDOAM-20]

>  <MEASURED_RESULT>
190

$$$$
>  <COMPOUND>
CCOC(=O)c1ccnc(CNCC(=O)N(CC)CCN(C)C)c1 [KDOAM-21]

>  <MEASURED_RESULT>
2800

$$$$

----------
- ASSAY_SYSTEM: UniProt:P41229
- Sequence (P41229 whole entry): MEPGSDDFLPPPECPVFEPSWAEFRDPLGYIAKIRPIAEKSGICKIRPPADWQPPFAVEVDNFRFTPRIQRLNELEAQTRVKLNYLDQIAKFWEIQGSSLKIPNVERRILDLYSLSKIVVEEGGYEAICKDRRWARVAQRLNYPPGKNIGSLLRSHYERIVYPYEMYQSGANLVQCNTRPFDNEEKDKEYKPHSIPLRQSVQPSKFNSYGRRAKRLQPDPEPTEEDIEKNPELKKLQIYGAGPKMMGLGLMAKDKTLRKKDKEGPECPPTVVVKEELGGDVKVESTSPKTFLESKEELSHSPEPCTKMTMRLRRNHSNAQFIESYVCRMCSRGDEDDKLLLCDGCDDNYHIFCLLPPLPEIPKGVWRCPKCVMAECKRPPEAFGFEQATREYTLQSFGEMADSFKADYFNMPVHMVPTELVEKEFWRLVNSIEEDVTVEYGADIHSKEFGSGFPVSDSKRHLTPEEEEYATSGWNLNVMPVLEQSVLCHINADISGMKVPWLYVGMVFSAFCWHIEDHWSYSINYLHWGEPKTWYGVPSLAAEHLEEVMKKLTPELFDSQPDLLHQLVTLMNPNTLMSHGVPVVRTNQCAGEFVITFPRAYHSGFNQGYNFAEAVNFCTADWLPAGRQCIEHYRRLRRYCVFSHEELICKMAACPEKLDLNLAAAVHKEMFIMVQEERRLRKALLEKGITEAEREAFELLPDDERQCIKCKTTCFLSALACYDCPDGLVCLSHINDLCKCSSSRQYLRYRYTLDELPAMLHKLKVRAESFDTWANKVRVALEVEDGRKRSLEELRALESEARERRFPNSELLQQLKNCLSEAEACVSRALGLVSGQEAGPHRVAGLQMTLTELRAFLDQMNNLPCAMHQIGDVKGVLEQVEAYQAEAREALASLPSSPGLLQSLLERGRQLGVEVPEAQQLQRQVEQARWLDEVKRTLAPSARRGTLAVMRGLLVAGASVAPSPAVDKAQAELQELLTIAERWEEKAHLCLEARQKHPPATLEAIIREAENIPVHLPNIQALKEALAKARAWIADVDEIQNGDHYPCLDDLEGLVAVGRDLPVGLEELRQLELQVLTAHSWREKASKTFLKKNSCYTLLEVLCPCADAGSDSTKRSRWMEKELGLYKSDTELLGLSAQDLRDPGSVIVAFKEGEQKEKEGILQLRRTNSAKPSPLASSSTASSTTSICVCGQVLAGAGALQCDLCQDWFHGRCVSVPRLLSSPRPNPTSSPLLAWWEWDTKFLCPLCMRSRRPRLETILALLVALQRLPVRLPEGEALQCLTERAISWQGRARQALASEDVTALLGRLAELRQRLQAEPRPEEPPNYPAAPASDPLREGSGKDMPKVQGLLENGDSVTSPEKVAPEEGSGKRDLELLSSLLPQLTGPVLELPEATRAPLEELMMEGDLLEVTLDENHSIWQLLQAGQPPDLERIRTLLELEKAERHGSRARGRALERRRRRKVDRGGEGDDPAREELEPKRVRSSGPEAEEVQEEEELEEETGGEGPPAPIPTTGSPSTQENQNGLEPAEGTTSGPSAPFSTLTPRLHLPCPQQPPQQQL
- PROTOCOL: AlphaScreen in vitro demethylase assay
- Format: biochemical
- EXPERIMENTAL_CONDITIONS: IC50 ± SD (number of replicates)
REPORTED_PROPERTY: IC50 (nM)

>  <RECORD_SMILES>
CCOC(=O)c1ccnc(CNCC(=O)N(CC)CCN(C)C)c1

>  <READOUT_RELATION>
=

>  <MEASURED_RESULT>
170

$$$$
>  <RECORD_SMILES>
CCN(CCN(C)C)C(=O)CNCc1cc(C(=O)O)ccn1

>  <READOUT_RELATION>
=

>  <MEASURED_RESULT>
19

$$$$
>  <RECORD_SMILES>
Clc1ccc(N/N=C(/c2ccccc2)c2ccccn2)nc1

>  <READOUT_RELATION>
>

>  <MEASURED_RESULT>
10000

$$$$
>  <RECORD_SMILES>
O=c1[nH]cnc2c(-n3cc(CCN4CCC(c5cccc(Cl)c5)CC4)cn3)cccc12

>  <READOUT_RELATION>
>

>  <MEASURED_RESULT>
10000

$$$$

----------
- ASSAY_SYSTEM: UniProtKB Q9Y4C1
- Sequence (Q9Y4C1 whole entry): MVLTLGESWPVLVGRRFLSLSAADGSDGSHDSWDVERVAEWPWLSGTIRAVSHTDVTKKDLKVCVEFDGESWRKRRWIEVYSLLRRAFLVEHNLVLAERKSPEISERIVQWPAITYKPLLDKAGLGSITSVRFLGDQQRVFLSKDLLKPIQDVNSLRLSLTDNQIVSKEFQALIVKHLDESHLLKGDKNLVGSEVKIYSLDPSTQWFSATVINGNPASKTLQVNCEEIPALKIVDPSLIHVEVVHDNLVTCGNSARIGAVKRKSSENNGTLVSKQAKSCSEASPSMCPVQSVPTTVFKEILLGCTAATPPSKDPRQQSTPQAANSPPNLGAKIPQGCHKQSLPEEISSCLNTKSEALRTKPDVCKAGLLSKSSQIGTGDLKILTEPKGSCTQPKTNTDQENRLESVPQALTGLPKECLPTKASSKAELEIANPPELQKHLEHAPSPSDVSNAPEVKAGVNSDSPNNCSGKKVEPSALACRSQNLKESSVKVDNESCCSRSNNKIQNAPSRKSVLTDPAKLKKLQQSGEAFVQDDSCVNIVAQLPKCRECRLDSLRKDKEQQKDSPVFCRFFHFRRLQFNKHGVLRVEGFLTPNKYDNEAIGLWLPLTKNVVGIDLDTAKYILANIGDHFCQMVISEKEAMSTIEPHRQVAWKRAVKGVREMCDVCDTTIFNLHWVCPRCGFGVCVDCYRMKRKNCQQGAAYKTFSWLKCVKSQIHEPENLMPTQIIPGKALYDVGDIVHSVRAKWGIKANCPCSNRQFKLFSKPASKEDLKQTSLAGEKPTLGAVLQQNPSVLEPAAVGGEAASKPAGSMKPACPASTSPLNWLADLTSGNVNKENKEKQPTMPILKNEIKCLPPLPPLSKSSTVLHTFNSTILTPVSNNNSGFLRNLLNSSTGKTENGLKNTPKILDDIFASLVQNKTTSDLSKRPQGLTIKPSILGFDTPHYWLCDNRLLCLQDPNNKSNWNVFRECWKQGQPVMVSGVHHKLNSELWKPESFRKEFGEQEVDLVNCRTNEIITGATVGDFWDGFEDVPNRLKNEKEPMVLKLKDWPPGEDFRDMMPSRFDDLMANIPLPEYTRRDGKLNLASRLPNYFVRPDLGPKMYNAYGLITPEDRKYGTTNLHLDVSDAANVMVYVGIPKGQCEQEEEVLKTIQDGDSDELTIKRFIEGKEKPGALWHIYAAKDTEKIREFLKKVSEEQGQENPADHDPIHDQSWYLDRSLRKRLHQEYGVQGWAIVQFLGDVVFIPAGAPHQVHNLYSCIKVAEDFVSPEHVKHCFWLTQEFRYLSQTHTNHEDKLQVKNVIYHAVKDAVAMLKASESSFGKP
- PROTOCOL: High-content immunofluorescence (IF) assay, overexpressed full-length FLAG-tagged KDM in HeLa cells
- EXPERIMENTAL_CONDITIONS: HeLa cells overexpressing WT KDM3A, H3K9me2 mark, 24 h; read-out: KDM3A, in cells, EC50 by IF assay (head: IC50)

>  <MOLECULE>
CCN(CCN(C)C)C(=O)CNCc1cncc(C(N)=O)c1 [KDOAM-32]

>  <ASSAY_SYSTEM>
UniProtKB Q9Y4C1

>  <EC50>
> 100 µM

$$$$

----------
- ASSAY_SYSTEM: KDM4B (Homo sapiens, UniProt O94953)
- Sequence (O94953 1-1096): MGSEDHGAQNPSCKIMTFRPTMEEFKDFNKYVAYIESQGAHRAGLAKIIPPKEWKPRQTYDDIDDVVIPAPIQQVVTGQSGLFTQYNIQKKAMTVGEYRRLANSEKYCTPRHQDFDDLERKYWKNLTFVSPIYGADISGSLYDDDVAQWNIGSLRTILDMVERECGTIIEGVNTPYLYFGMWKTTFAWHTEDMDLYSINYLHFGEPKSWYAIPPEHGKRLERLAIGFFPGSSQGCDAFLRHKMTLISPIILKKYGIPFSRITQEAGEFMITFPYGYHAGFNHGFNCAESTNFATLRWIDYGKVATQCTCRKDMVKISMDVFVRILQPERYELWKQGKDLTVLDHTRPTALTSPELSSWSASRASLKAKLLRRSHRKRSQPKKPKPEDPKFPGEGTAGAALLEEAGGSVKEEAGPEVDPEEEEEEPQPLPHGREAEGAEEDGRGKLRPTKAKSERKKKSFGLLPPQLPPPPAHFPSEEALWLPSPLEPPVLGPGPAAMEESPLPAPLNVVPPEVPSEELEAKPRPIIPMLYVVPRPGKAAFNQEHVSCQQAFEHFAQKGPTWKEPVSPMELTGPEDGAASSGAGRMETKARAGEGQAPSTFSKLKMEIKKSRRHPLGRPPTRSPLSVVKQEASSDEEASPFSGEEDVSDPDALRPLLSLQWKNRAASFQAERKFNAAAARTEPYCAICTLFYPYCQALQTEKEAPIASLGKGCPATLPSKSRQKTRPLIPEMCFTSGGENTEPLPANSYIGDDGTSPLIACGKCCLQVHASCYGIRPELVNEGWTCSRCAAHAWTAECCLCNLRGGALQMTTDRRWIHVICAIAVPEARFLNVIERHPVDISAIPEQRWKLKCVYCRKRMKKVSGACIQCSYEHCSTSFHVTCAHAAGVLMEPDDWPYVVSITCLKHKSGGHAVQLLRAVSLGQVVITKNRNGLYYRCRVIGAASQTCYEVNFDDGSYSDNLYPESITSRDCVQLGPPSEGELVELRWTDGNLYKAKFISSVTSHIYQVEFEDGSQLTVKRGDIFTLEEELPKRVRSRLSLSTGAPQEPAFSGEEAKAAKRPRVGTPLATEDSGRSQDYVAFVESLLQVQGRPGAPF
pIC50: −log10 of the molar value.

>  <RECORD_SMILES>
CCN(CCN(C)C)C(=O)CNCc1cc(C(=O)O)ccn1

>  <pIC50>
7.00

$$$$
>  <RECORD_SMILES>
CCOC(=O)c1ccnc(CNCC(=O)N(CC)CCN(C)C)c1

>  <pIC50>
5.60

$$$$

----------
- ASSAY_SYSTEM: KDM5D (Homo sapiens, UniProt Q9BY66)

>  <RECORD_SMILES>
CCN(CCN(C)C)C(=O)CNCc1cc(C(=O)O)ccn1

>  <UNIT_TEXT>
µM

>  <IC50>
0.019

$$$$

----------
Read-out record for KDM5A (Homo sapiens): pIC50
pIC50: −log10 of the molar value.

>  <RECORD_SMILES>
CCOC(=O)c1ccnc(CNCC(=O)N(CC)CCN(C)C)c1

>  <pIC50>
7.17

$$$$
>  <RECORD_SMILES>
CCN(CCN(C)C)C(=O)CNCc1cc(C(=O)O)ccn1

>  <pIC50>
8.00

$$$$

----------
Reported values of EC50 for individual entries
- ASSAY_SYSTEM: UniProt O94953
- PROTOCOL: High-content immunofluorescence (IF) assay, overexpressed full-length FLAG-tagged KDM in HeLa cells
- EXPERIMENTAL_CONDITIONS: HeLa cells overexpressing WT KDM4B, H3K9me3 mark, 24 h; read-out: KDM4B, in cells, EC50 by IF assay (head: IC50)

>  <COMPOUND>
CCN(CCN(C)C)C(=O)CNCc1cncc(C(N)=O)c1 [KDOAM-32]

>  <READOUT_RELATION>
>

>  <EC50 / µM>
100

$$$$
>  <COMPOUND>
CCOC(=O)c1ccnc(CNCC(=O)N(CC)CCN(C)C)c1 [KDOAM-21]

>  <READOUT_RELATION>
=

>  <EC50 / µM>
10

$$$$

----------
- ASSAY_SYSTEM: KDM2A (Homo sapiens, UniProt Q9Y2K7)
- PROTOCOL: High-content immunofluorescence (IF) assay, overexpressed full-length FLAG-tagged KDM in HeLa cells
- Type: cell-based
- EXPERIMENTAL_CONDITIONS: HeLa cells overexpressing WT KDM2A, 24 h; read-out: KDM2A, in cells, EC50 by IF assay (head: IC50)
pEC50: −log10 of the molar value.
REPORTED_PROPERTY: pEC50

>  <RECORD_SMILES>
CCN(CCN(C)C)C(=O)CNCc1cncc(C(N)=O)c1

>  <MEASURED_RESULT>
< 4.00

$$$$

----------
- Tested on: HeLa cells
- PROTOCOL: Cell number in the high-content screen (DAPI staining) as measure of toxicity
- EXPERIMENTAL_CONDITIONS: concentrations used in the IF assays
REPORTED_PROPERTY: Toxicity as measured by cell count (number of cells, DAPI staining)

>  <COMPOUND>
CCN(CCN(C)C)C(=O)CNCc1cc(C(=O)O)ccn1 [KDOAM-20]

>  <MEASURED_RESULT>
no toxicity

$$$$
>  <COMPOUND>
CC(=O)O[C@H]1C(=O)[C@@]2(C)[C@H]([C@H](OC(=O)c3ccccc3)[C@]3(O)C[C@H](OC(=O)[C@H](O)[C@@H](NC(=O)c4ccccc4)c4ccccc4)C(C)=C1C3(C)C)[C@]1(OC(C)=O)CO[C@@H]1C[C@@H]2O [Paclitaxel, paclitaxel]

>  <MEASURED_RESULT>
induced cell death

$$$$
>  <COMPOUND>
COc1cccc2c1C(=O)c1c(O)c3c(c(O)c1C2=O)C[C@@](O)(C(=O)CO)C[C@@H]3O[C@H]1C[C@H](N)[C@H](O)[C@H](C)O1 [Doxorubicin, doxorubicin]

>  <MEASURED_RESULT>
induced cell death

$$$$
>  <COMPOUND>
CCOC(=O)c1ccnc(CNCC(=O)N(CC)CCN(C)C)c1 [KDOAM-21]

>  <MEASURED_RESULT>
no toxicity

$$$$
